- Tested on: intestinal alkaline phosphatase [Mus musculus]
- method.description: mouse intestinal phosphatase enzyme activation – biochemical, luminescence, single concentration, confirmation (AID 434970)
- test.settings: purified mouse IAP, CDP-Star luminescence, 30 min, at 10 µM; measured here: IAP activation factor, stronger effect = higher value
Screen size: about 11,000 compounds; about 310 (2.8%) were called active. Many of the other results were omitted from the sample, so actives are more common in it than they were.
Kindly supply the reported activation factor values for the records listed here.
Numbers only.

Quick batch: activation factor for everything below.
1. Cc1onc(-c2ccccc2)c1CNC(=O)Nc1cccc(Cl)c1
2. Cc1onc(-c2ccccc2)c1C(=O)NCc1ccccn1
3. O=C(Nc1cccc(C(F)(F)F)c1)Nc1ccc(N2CCCC2)c(S(=O)(=O)Nc2ccccc2Cl)c1
4. CC(C)Oc1ccc(/C=N/NC(=O)C(CSCc2ccccc2)NC(=O)c2ccc([N+](=O)[O-])cc2)cc1 (stereo not given)

Solution:
2.33
0.956
1.67
0.941
